Values from paper PMC11542179

Please go through the items and note down their Kd.
Target: MSI1 RRM1-RRM2 tandem (Homo sapiens, UniProt O43347 1-200)
Sequence (O43347 1-200): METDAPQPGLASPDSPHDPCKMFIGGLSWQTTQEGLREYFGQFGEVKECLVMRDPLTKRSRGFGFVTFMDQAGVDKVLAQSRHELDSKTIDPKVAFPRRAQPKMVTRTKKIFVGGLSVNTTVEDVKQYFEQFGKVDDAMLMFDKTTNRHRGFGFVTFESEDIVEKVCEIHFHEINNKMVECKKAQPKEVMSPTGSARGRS
Assay: SPR; KD1 monovalent step, new model; SPR, 3'-biotinylated RNA immobilized on dextran sensor chip, protein as analyte; running buffer, salt, pH and temperature not in the material
Conditions: protein: recombinant; label: 3'-biotin; potential hairpin
Numbers only, in nM.

- Binder: "CACUCUGUAGUAUGUAGGGUUUAUUU (structured_RNA) [RNA-HP2b]"
  Kd (nM): 49

# next binder below
Prompt line: Identify the reported Kd for the following entry. AAGCGUUAGUUAUUUAGUCGCUU (structured_RNA) [RNA-HP2a]
Response line: 77
